Tested on: 328373-195-R-J1-PDC complex spheroids, viability % test/control
Test: Anticancer human tumor 328373-195-R-J1-PDC patient-derived head and neck squamous carcinoma cell line growth inhibition [CLK]
Details: second compound 1 µM; first compound 0.0949 µM; stronger effect = lower value
Exercise: state measured viability, T/C for each of the molecules provided.

| molecule | tested-system | measured-parameter | result |
| --- | --- | --- | --- |
| C=CC(=O)Nc1cc(Nc2nccc(-c3cn(C)c4ccccc34)n2)c(OC)cc1N(C)CCN(C)C + CN1CCN(c2cc(C(=O)Nc3cc4cc(-c5cnn(C)c5)ccc4cn3)ccn2)CC1 | 328373-195-R-J1-PDC complex spheroids, viability % test/control | viability, T/C | 1.86% |
| NC(=O)C(=Cn1cnc(-c2cc(C(F)(F)F)cc(C(F)(F)F)c2)n1)c1cncnc1 + CNC(=O)c1ccc(Nc2nc(OC3CCCC3)c3c(-c4ccc5nc(C)oc5c4)c[nH]c3n2)c(OC)c1 | 328373-195-R-J1-PDC complex spheroids, viability % test/control | viability, T/C | 0.17% |

Turning now to a further record.
IN: Tell me viability, T/C reported for CC(C)CC(NC(=O)C(Cc1ccccc1)NC(=O)c1cnccn1)B(O)O (stereo not drawn) + CNC(=O)c1ccc(Nc2nc(OC3CCCC3)c3c(-c4ccc5nc(C)oc5c4)c[nH]c3n2)c(OC)c1
OUT: 0.12%

---

System: 328373-195-R-J1-PDC complex spheroids, viability % test/control
Assay: Anticancer human tumor 328373-195-R-J1-PDC cell line growth inhibition [CLK]; active = viability on the fitted dose curve at most 10% of control; inactive = the rest;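 note: spheroids exposed to the agents for 7 days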
Details: second compound 0.316 µM; first compound 0.0949 µM
Hi there, use one of these labels in your reply, thanks! y for active, n for inactive

| compound | assigned-category |
| --- | --- |
| CC(C)CC(NC(=O)C(Cc1ccccc1)NC(=O)c1cnccn1)B(O)O (stereo unspecified) + CNC(=O)c1ccc(Nc2nc(OC3CCCC3)c3c(-c4ccc5nc(C)oc5c4)c[nH]c3n2)c(OC)c1 | y |
| CC(C)CC(NC(=O)C(Cc1ccccc1)NC(=O)c1cnccn1)B(O)O (stereo unspecified) + CN1CCN(c2cc(C(=O)Nc3cc4cc(-c5cnn(C)c5)ccc4cn3)ccn2)CC1 | y |

IN: Please let me know the test result on file for C=CC(=O)Nc1cc(Nc2nccc(-c3cn(C)c4ccccc34)n2)c(OC)cc1N(C)CCN(C)C + CNC(=O)c1ccc(Nc2nc(OC3CCCC3)c3c(-c4ccc5nc(C)oc5c4)c[nH]c3n2)c(OC)c1 .
OUT: y

IN: Please let me know the test result on file for NC(=O)C(=Cn1cnc(-c2cc(C(F)(F)F)cc(C(F)(F)F)c2)n1)c1cncnc1 + CNC(=O)c1ccc(Nc2nc(OC3CCCC3)c3c(-c4ccc5nc(C)oc5c4)c[nH]c3n2)c(OC)c1 .
OUT: y

IN: Please let me know the test result on file for NC(=O)C(=Cn1cnc(-c2cc(C(F)(F)F)cc(C(F)(F)F)c2)n1)c1cncnc1 + CN1CCN(c2cc(C(=O)Nc3cc4cc(-c5cnn(C)c5)ccc4cn3)ccn2)CC1 .
OUT: y

IN: Please let me know the test result on file for C=CC(=O)Nc1cc(Nc2nccc(-c3cn(C)c4ccccc34)n2)c(OC)cc1N(C)CCN(C)C + CN1CCN(c2cc(C(=O)Nc3cc4cc(-c5cnn(C)c5)ccc4cn3)ccn2)CC1 .
OUT: n

---

Exercise: state measured viability, T/C for each of the compounds provided.
Test system: 328373-195-R-J1-PDC complex spheroids, viability % test/control
Assay: Anticancer human tumor 328373-195-R-J1-PDC cell line growth inhibition [CLK];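 note: spheroids exposed to the agents for 7 days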
Settings: second compound 0.1 µM; first compound 3.16 µM; stronger effect = lower value
Numbers only, in %.

Guide cases for viability, T/C, answers given:
| compound | tested-system | viability, T/C [%] |
| --- | --- | --- |
| C=CC(=O)N1CCN(c2nc(=O)n(-c3c(C)ccnc3C(C)C)c3nc(-c4c(O)cccc4F)c(F)cc23)C(C)C1 (stereo not given) + CN1CCN(c2cc(C(=O)Nc3cc4cc(-c5cnn(C)c5)ccc4cn3)ccn2)CC1 | 328373-195-R-J1-PDC complex spheroids, viability % test/control | 83.5 |
| CC1(C)CCC(CN2CCN(c3ccc(C(=O)NS(=O)(=O)c4ccc(NCC5CCOCC5)c([N+](=O)[O-])c4)c(Oc4cnc5[nH]ccc5c4)c3)CC2)=C(c2ccc(Cl)cc2)C1 + CN1CCN(c2cc(C(=O)Nc3cc4cc(-c5cnn(C)c5)ccc4cn3)ccn2)CC1 | 328373-195-R-J1-PDC complex spheroids, viability % test/control | 78.2 |
| O=C(c1cc(Cc2n[nH]c(=O)c3ccccc23)ccc1F)N1CCN(C(=O)C2CC2)CC1 + CN1CCN(c2cc(C(=O)Nc3cc4cc(-c5cnn(C)c5)ccc4cn3)ccn2)CC1 | 328373-195-R-J1-PDC complex spheroids, viability % test/control | 79 |

Your task in this section: give viability, T/C for each listed record.
1. C=CC(=O)N1CCN(c2nc(=O)n(-c3c(C)ccnc3C(C)C)c3nc(-c4c(O)cccc4F)c(F)cc23)C(C)C1 (stereo not given) + CNC(=O)c1ccc(Nc2nc(OC3CCCC3)c3c(-c4ccc5nc(C)oc5c4)c[nH]c3n2)c(OC)c1
2. Nc1ccn(C2OC(CO)C(O)C2(F)F)c(=O)n1 (stereo not given) + CNC(=O)c1ccc(Nc2nc(OC3CCCC3)c3c(-c4ccc5nc(C)oc5c4)c[nH]c3n2)c(OC)c1
3. CC1COCCN1c1cc(C2(S(C)(=N)=O)CC2)nc(-c2ccnc3[nH]ccc23)n1 (stereo not given) + CNC(=O)c1ccc(Nc2nc(OC3CCCC3)c3c(-c4ccc5nc(C)oc5c4)c[nH]c3n2)c(OC)c1
4. Nc1ccccc1NC(=O)c1ccc(CNC(=O)OCc2cccnc2)cc1 + CN1CCN(c2cc(C(=O)Nc3cc4cc(-c5cnn(C)c5)ccc4cn3)ccn2)CC1

OUT:
[13.2, 2.83, 5.72, 30]

Your task in this section: give viability, T/C for each listed record.
1. O=C(c1cc(Cc2n[nH]c(=O)c3ccccc23)ccc1F)N1CCN(C(=O)C2CC2)CC1 + CNC(=O)c1ccc(Nc2nc(OC3CCCC3)c3c(-c4ccc5nc(C)oc5c4)c[nH]c3n2)c(OC)c1
2. Nc1ccccc1NC(=O)c1ccc(CNC(=O)OCc2cccnc2)cc1 + CNC(=O)c1ccc(Nc2nc(OC3CCCC3)c3c(-c4ccc5nc(C)oc5c4)c[nH]c3n2)c(OC)c1
3. CCCS(=O)(=O)Nc1ccc(F)c(C(=O)c2c[nH]c3ncc(-c4ccc(Cl)cc4)cc23)c1F + CNC(=O)c1ccc(Nc2nc(OC3CCCC3)c3c(-c4ccc5nc(C)oc5c4)c[nH]c3n2)c(OC)c1

OUT:
1: 13.5; 2: 13.8; 3: 13.9

---

Test system: 328373-195-R-J1-PDC complex spheroids, viability % test/control
Assay: Anticancer human tumor 328373-195-R-J1-PDC cell line growth inhibition [CLK];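 note: spheroids exposed to the agents for 7 days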
Conditions: curve of first compound; second compound 0.0316 µM
Exercise: state measured pIC50 for each of the compounds provided.
Answers are plain numbers, as −log10 of the molar value.

Guide cases for pIC50, answers given:
| compound | pIC50 |
| --- | --- |
| CC1COCCN1c1cc(C2(S(C)(=N)=O)CC2)nc(-c2ccnc3[nH]ccc23)n1 (stereo unspecified) + CN1CCN(c2cc(C(=O)Nc3cc4cc(-c5cnn(C)c5)ccc4cn3)ccn2)CC1 | 5.78 |
| Nc1ccccc1NC(=O)c1ccc(CNC(=O)OCc2cccnc2)cc1 + CNC(=O)c1ccc(Nc2nc(OC3CCCC3)c3c(-c4ccc5nc(C)oc5c4)c[nH]c3n2)c(OC)c1 | 7.26 |
| COc1c(OCCCN2CCOCC2)ccc2c3n(c(=NC(=O)c4cnc(N)nc4)nc12)CCN3 + CN1CCN(c2cc(C(=O)Nc3cc4cc(-c5cnn(C)c5)ccc4cn3)ccn2)CC1 | 6.90 |

Your task in this section: give pIC50 for each listed record.
1. Nc1ccccc1NC(=O)c1ccc(CNC(=O)OCc2cccnc2)cc1 + CN1CCN(c2cc(C(=O)Nc3cc4cc(-c5cnn(C)c5)ccc4cn3)ccn2)CC1
2. CC(Nc1ccc2c(c1)OCCn1cc(N3C(=O)OCC3C(F)F)nc1-2)C(N)=O (stereo unspecified) + CNC(=O)c1ccc(Nc2nc(OC3CCCC3)c3c(-c4ccc5nc(C)oc5c4)c[nH]c3n2)c(OC)c1

OUT:
6.15
5.28

---

System: 328373-195-R-J1-PDC complex spheroids, viability % test/control
Assay: Anticancer human tumor 328373-195-R-J1-PDC cell line growth inhibition [CLK];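 note: spheroids exposed to the agents for 7 days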
Settings: second compound 0.1 µM; first compound 3.16 µM; stronger effect = lower value
Exercise: state measured viability, T/C for each of the compounds provided.
One number for each entry, in %.

Guide cases for viability, T/C, answers given:
| compound | measured-parameter | quantitative-readout |
| --- | --- | --- |
| CC(Nc1ccc2c(c1)OCCn1cc(N3C(=O)OCC3C(F)F)nc1-2)C(N)=O (stereo not drawn) + CNC(=O)c1ccc(Nc2nc(OC3CCCC3)c3c(-c4ccc5nc(C)oc5c4)c[nH]c3n2)c(OC)c1 | viability, T/C | 10.4 |
| CC1COCCN1c1cc(C2(S(C)(=N)=O)CC2)nc(-c2ccnc3[nH]ccc23)n1 (stereo not drawn) + CN1CCN(c2cc(C(=O)Nc3cc4cc(-c5cnn(C)c5)ccc4cn3)ccn2)CC1 | viability, T/C | 18 |

Turning now to a further record.
IN: Tell me viability, T/C reported for O=c1[nH]cc(F)c(=O)[nH]1 + CN1CCN(c2cc(C(=O)Nc3cc4cc(-c5cnn(C)c5)ccc4cn3)ccn2)CC1
OUT: 10.2
